biological target: human JAK2 (Homo sapiens); construct: catalytic domain (amino acids 808-1132; catalog number PV4210); GST; purchased Invitrogen PV4210; assay: JAK2 inhibition assay (polyGT substrate / Ulight-JAK1 peptide); assay type: biochemical; conditions: recombinant human JAK2 catalytic domain; polyGT or Ulight-JAK1 peptide assay
Sequence (O60674 808-1132): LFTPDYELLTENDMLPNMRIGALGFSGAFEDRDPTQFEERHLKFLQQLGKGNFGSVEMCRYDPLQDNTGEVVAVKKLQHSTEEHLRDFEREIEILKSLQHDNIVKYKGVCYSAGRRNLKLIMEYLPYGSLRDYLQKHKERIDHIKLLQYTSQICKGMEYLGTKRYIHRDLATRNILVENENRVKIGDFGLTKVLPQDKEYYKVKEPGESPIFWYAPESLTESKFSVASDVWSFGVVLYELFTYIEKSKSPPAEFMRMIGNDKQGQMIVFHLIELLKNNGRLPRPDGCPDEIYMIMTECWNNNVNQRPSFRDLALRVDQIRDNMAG
pIC50: −log10 of the molar value.
assay_metric: pIC50

Qu. Could you tell me which pIC50 is on file for CN(c1cc2c(cn1)ncn2C)c1ccc(C2CN(C(=O)N3CCC3)C2)cc1OC(F)F ?
Ans. < 6.00

Qu. What do you get for CN(c1ccc(OC(F)(F)F)cc1)c1cc2c(cn1)ncn2C ?
Ans. < 6.00

Qu. What do you get for CCc1cc(C(C#N)N2CC(F)(F)C2)ccc1N(C)c1cc2c(cn1)ncn2C (stereo not drawn) ?
Ans. 7.00 to 11.00

Qu. What do you get for CCc1ccccc1N(CCC#N)c1cc2c(cn1)ncn2C ?
Ans. < 6.00

Qu. What do you get for Cc1c(OCc2ccc(C#N)nc2)cccc1N(C)c1cc2c(cn1)ncn2C ?
Ans. < 6.00

Qu. What do you get for CCc1cc(N2CC(NS(C)(=O)=O)C2)ncc1N(C)c1cc2c(cn1)ncn2C ?
Ans. 7.00 to 11.00

Qu. What do you get for COc1ccc(N(C)c2cc3c(cn2)ncn3C)cc1 ?
Ans. < 6.00

Qu. What do you get for CCc1cc(N2CC[C@H](C)C2)ncc1N(C)c1cc2c(cn1)ncn2C ?
Ans. 7.00 to 11.00

Qu. What do you get for Cc1ccc(OCCCC#N)cc1N(C)c1cc2c(cn1)ncn2C ?
Ans. < 6.00

Qu. What do you get for COc1ccc(S(=O)(=O)N2CCCCC2)cc1N(C)c1cc2c(cn1)ncn2C ?
Ans. < 6.00

Qu. What do you get for Cc1cc(-c2cncnc2)ccc1N(C)c1cc2c(cn1)ncn2C ?
Ans. < 6.00

Qu. What do you get for CCc1cc(CN(CC#N)S(C)(=O)=O)ncc1N(C)c1cc2c(cn1)ncn2C ?
Ans. 6.30 to 7.00

Qu. What do you get for CCc1cc(C(C#N)N2CCN(S(C)(=O)=O)CC2)ccc1N(C)c1cc2c(cn1)ncn2C (stereo not drawn) ?
Ans. 7.00 to 11.00

Qu. What do you get for CCc1cc(C2CN(S(=O)(=O)C(C)C)C2)ncc1N(C)c1cc2c(cn1)ncn2C ?
Ans. 6.30 to 7.00

Qu. What do you get for CCc1ccc(C(=O)Nc2cccnc2)cc1N(C)c1cc2c(cn1)ncn2C ?
Ans. < 6.00

Qu. What do you get for CN(c1cc2c(cn1)ncn2C)c1ccc(CN(CC2CC2)S(C)(=O)=O)cc1F ?
Ans. 6.30 to 7.00

Qu. What do you get for CCc1cc(C2(C#N)CC2)ccc1N(C)c1cc2c(cn1)ncn2C ?
Ans. 7.00 to 11.00

Qu. What do you get for Cc1ccc(N(C)c2cc3c(cn2)ncn3C)c(OC(F)F)c1 ?
Ans. 7.00 to 11.00

====

target: human JAK1 (Homo sapiens, UniProt P23458); construct: catalytic domain, amino acids 866-1154; catalog number PV4774; assay: JAK1 inhibition assay (polyGT substrate / Ulight-JAK1 peptide); settings: recombinant human JAK1 catalytic domain; polyGT or Ulight-JAK1 peptide assay
Sequence (P23458 866-1154): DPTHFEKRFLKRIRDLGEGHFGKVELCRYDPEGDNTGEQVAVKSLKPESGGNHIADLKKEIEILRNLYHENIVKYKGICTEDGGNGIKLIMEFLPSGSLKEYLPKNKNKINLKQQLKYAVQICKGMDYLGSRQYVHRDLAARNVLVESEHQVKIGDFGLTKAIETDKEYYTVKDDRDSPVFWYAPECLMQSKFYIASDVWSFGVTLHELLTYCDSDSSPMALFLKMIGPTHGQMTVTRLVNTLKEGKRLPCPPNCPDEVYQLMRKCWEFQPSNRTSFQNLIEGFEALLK
So I've got a bunch of molecules here, and I need their IC50 values.

Qu. Form: Entry = CCOC(=O)c1ccc(N(CC)c2cc3c(cn2)ncn3C)cc1 | System = human JAK1 (Homo sapiens, UniProt P23458) | IC50 = ____
Ans. > 1000 nM

Qu. What do you get for CCc1cc(C(C#N)N2CCC(S(C)(=O)=O)CC2)ccc1N(C)c1cc2c(cn1)ncn2C (stereo not drawn) ?
Ans. 0.01 to 100 nM

Qu. What do you get for CCN(c1ccc(CO)cc1)c1cc2c(cn1)ncn2C ?
Ans. 501 to 1000 nM

Qu. What do you get for CCc1cc(O[C@@H]2CCN(S(C)(=O)=O)C2)ccc1N(C)c1cc2c(cn1)ncn2C ?
Ans. 0.01 to 100 nM

Qu. What do you get for CCc1cc(N2CCCC(C#N)C2)ncc1N(C)c1cc2c(cn1)ncn2C (stereo not drawn) ?
Ans. 0.01 to 100 nM

Qu. What do you get for Cc1c(OCc2cccnc2)cccc1N(C)c1cc2c(cn1)ncn2C ?
Ans. 101 to 500 nM

Qu. What do you get for CCc1cc(C(C#N)N2CCC2)ccc1N(C)c1cc2c(cn1)ncn2C (stereo not drawn) ?
Ans. 0.01 to 100 nM

Qu. What do you get for CCc1cc(CNC(=O)C(F)F)c(F)cc1N(C)c1cc2c(cn1)ncn2C ?
Ans. 0.01 to 100 nM

Qu. What do you get for CCc1cc(C2CCNCC2)ccc1N(C)c1cc2c(cn1)ncn2C ?
Ans. 0.01 to 100 nM

====

target: human JAK1 (Homo sapiens, UniProt P23458); construct: catalytic domain, amino acids 866-1154; catalog number PV4774; assay: JAK1 inhibition assay (polyGT substrate / Ulight-JAK1 peptide); settings: recombinant human JAK1 catalytic domain; polyGT or Ulight-JAK1 peptide assay
pIC50: −log10 of the molar value.
So I've got a bunch of molecules here, and I need their pIC50 values.

Qu. Could you tell me which pIC50 is on file for CN(c1cc2c(cn1)ncn2C)c1ccc(C2CCN(C(=O)OC(C)(C)C)CC2)cc1F ?
Ans. < 6.00

Qu. What do you get for CCc1cc(C2CCN(C(=O)C(C)O)CC2)ccc1N(C)c1cc2c(cn1)ncn2C (stereo not shown) ?
Ans. 7.00 to 11.00

Qu. What do you get for CCc1cc(CN2CCC(F)(F)CC2)ccc1N(C)c1cc2c(cn1)ncn2C ?
Ans. 7.00 to 11.00

Qu. What do you get for CCc1cc(C2=CCN(C(=O)CC#N)CC2)ccc1N(C)c1cc2c(cn1)ncn2C ?
Ans. 7.00 to 11.00

====

Molecular target: human TYK2 (Homo sapiens)
Construct: catalytic domain (amino acids 871-1187; catalog number 08-147)
Sequence (P29597 871-1187): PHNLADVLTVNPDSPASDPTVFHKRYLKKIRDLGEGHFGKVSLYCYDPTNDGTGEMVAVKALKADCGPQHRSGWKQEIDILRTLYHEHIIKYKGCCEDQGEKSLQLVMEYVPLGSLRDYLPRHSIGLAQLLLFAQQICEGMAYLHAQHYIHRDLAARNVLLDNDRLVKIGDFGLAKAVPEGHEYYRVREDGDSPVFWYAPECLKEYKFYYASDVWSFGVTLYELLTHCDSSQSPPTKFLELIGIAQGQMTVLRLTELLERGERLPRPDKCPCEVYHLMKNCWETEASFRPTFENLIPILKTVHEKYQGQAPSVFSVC
Test: TYK2 inhibition assay
Conditions: recombinant human TYK2 catalytic domain, polyGT substrate
pIC50: −log10 of the molar value.
assay_metric: pIC50

Qu. Could you tell me which pIC50 is on file for CCc1cc(-c2cnc(OCC#N)nc2)ccc1N(C)c1cc2c(cn1)ncn2C ?
Ans. 6.30 to 7.00

Qu. What do you get for CCc1cc(C(=O)NCCO)ccc1N(C)c1cc2c(cn1)ncn2C ?
Ans. < 6.00

Qu. What do you get for CCc1ccccc1N(CC1CC1)c1cc2c(cn1)ncn2C ?
Ans. 6.30 to 7.00

Qu. What do you get for CCc1cc(-c2cnccc2Cl)ccc1N(C)c1cc2c(cn1)ncn2C ?
Ans. 7.00 to 11.00

Qu. What do you get for CCc1cc(CNS(C)(=O)=O)cc(F)c1N(C)c1cc2c(cn1)ncn2C ?
Ans. 7.00 to 11.00

Qu. What do you get for CCc1cc(N2CC[C@H](C)C2)ncc1N(C)c1cc2c(cn1)ncn2C ?
Ans. 7.00 to 11.00

Qu. What do you get for CCc1cc(C2CN(C(=O)C(F)F)C2)ccc1N(C)c1cc2c(cn1)ncn2C ?
Ans. 7.00 to 11.00

Qu. What do you get for CCc1cc(CNS(=O)(=O)C(F)F)cc(F)c1N(C)c1cc2c(cn1)ncn2C ?
Ans. 7.00 to 11.00

Qu. What do you get for Cc1cc(OCCCC#N)ccc1N(C)c1cc2c(cn1)ncn2C ?
Ans. 6.00 to 6.30

Qu. What do you get for Cc1ccc(OCc2cccnc2)cc1N(C)c1cc2c(cn1)ncn2C ?
Ans. < 6.00

Qu. What do you get for CCc1cc(C(C#N)N2CCC(C#N)C2)ccc1N(C)c1cc2c(cn1)ncn2C (stereo not drawn) ?
Ans. 7.00 to 11.00

Qu. What do you get for CCc1ccccc1N(Cc1cccnc1)c1cc2c(cn1)ncn2C ?
Ans. < 6.00

Qu. What do you get for COc1cc(S(=O)(=O)N2CCOCC2)ccc1N(C)c1cc2c(cn1)ncn2C ?
Ans. < 6.00

Qu. What do you get for Cc1cc(-c2cn[nH]c2)ccc1N(C)c1cc2c(cn1)ncn2C ?
Ans. 7.00 to 11.00

Qu. What do you get for CCc1cc(C2=CCN(C(=O)C(C)(C)O)CC2)ccc1N(C)c1cc2c(cn1)ncn2C ?
Ans. 7.00 to 11.00

Qu. What do you get for CCc1cc(C2(C#N)CN(S(C)(=O)=O)C2)ncc1N(C)c1cc2c(cn1)ncn2C ?
Ans. 6.00 to 6.30

Qu. What do you get for CCc1cc(C2CCCCC2)ncc1N(C)c1cc2c(cn1)ncn2C ?
Ans. 6.30 to 7.00

Qu. What do you get for CCc1cc(C(C#N)N2CC(C#N)C2)ccc1N(C)c1cc2c(cn1)ncn2C (stereo not drawn) ?
Ans. 7.00 to 11.00
